Reference for the values: patent US20240116985A1

Give NanoBRET Abs IC50 for every item shown.
Biological target: T1, B-cat-Halo (UniProt P35222 1-781)
T1 sequence (looked up): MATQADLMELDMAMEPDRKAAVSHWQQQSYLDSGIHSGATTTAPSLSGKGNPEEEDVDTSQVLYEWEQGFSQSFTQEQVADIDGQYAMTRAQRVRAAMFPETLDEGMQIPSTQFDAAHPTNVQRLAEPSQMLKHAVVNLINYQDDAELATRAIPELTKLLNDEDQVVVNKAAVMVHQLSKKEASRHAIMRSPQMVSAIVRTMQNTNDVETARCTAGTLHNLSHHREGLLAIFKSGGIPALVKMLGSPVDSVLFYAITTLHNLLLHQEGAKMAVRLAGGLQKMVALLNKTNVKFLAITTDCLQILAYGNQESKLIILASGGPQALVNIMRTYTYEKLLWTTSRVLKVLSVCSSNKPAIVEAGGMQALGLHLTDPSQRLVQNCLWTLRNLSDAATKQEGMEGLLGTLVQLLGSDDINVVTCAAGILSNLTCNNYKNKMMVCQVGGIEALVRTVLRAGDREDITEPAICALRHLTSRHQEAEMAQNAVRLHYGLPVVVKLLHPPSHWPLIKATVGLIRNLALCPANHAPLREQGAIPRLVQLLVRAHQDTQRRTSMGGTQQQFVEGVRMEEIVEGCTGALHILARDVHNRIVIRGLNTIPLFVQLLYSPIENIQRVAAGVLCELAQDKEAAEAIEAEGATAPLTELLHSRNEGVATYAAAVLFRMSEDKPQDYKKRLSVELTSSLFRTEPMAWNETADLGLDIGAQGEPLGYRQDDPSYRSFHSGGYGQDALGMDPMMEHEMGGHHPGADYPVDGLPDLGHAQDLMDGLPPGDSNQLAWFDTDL
Test: cell-based or functional assay
Starred links: 1 amine or outer side, 2 acyl side, 3 side chain; linkers in the order of their positions; H or OH if unused. Positions of bridges follow the written chain, without caps; N, C: chain ends. Non-standard residues stand in square brackets, D forms with d. Primed or numbered codes have the meaning given here. No end group written: not given here. PyrS2″ = (S)-3-amino-1-((pent-4-en-1-yloxy)carbonyl)pyrrolidine-3-carboxylic acid (stapling residue), C=CCCCOC(=O)N1CC[C@@](N[*:1])(C(=O)[*:2])C1; B5(4) = 2,2-bis(4-pentenyl)glycine = 2-amino-2-(pent-4-en-1-yl)hept-6-enoic acid (stitching residue), C=CCCCC(CCCC=C)(N[*:1])C(=O)[*:2]; Phe(2-CF3) = N[C@@H](Cc1ccccc1C(F)(F)F)C(=O)O; Phe(2-Br) = N[C@@H](Cc1ccccc1Br)C(=O)O; Phe(2-F) = N[C@@H](Cc1ccccc1F)C(=O)O; Bta = N[C@@H](Cc1csc2ccccc12)C(=O)O; αAllylPro = C=CC[C@@]1(C(=O)O)CCCN1; tBuAla = CC(C)(C)C[C@H](N)C(=O)O
Numbers only, in µM.

binder="[αAllylPro]D[tBuAla][B5(4)]DDAAFL[PyrS2″][Phe(2-Br)][Bta]Q-NH2 (staple 1-4, 4-11) [I-1324]" unit=µM numeric_readout=5.8
binder="Ac-[αAllylPro]D[tBuAla][B5(4)]DDAAFN[PyrS2″][Phe(2-F)][Bta]Q-NH2 (staple 1-4, 4-11) [I-1320]" unit=µM numeric_readout=26.2

Pending binder:
Challenge: What value of NanoBRET Abs IC50 has been reported for the following binder? Ac-[αAllylPro]D[tBuAla][B5(4)]DDAAFN[PyrS2″][Phe(2-CF3)][Bta]Q-NH2 (staple 1-4, 4-11) [I-1317]
Response given: 9.7
